system: Influenza A virus; experiment: Antiviral activity against Influenza A virus (A/Chicken/Shandong/LY/08(H9N2)) infected in chicken embryo fibroblasts assessed as protection against virus-induced cytopathic effect preincubated for 1 hr followed by viral-infection measured after 2 days by MTS assay; assay type: functional, organism-based, Influenza A virus (A/chicken/Shandong/LY/2008(H9N2))
Measured pEC50 by item
Scale: negative log10 of molar concentration, which is what pEC50 denotes.

CCC(CC)C(=O)Nc1cc(NC(=O)[C@H](CC(C)C)NC(=O)/C=C/c2ccc(O)c(O)c2)ccc1OCC(=O)O: 4.87
CCC(CC)C(=O)Nc1cc(NC(C)=O)c(NC(=O)/C=C/c2ccc(O)c(O)c2)cc1OCC(=O)O: 4.86
CCC(CC)C(=O)Nc1cc(NC(=O)[C@@H](NC(=O)/C=C/c2ccc(O)c(O)c2)C(C)C)ccc1OCC(=O)O: 4.64
CCC(CC)CN(C(=O)/C=C/c1ccc(O)c(O)c1)c1ccc(OCC(=O)O)c(NC(=O)C(CC)CC)c1: 4.25
CCC(CC)C(=O)Nc1cc(NC(=O)C(C)C)c(NC(=O)/C=C/c2ccc(O)c(O)c2)cc1OCC(=O)O: 4.84

Challenge: Could you share which pEC50 value was measured for CCC(CC)C(=O)Nc1cc(NC(=O)[C@H](C)NC(=O)/C=C/c2ccc(O)c(O)c2)ccc1OCC(=O)O ?
Response given: 4.60

Challenge: Then this molecule: CCC(CC)C(=O)Nc1cc(NC(=O)CNC(=O)/C=C/c2ccc(O)c(O)c2)ccc1OCC(=O)O
Response given: 4.47

###

target: Neuraminidase (Influenza A virus, UniProt B4URF0); experiment: Non competitive inhibition of Influenza A virus (A/Chicken/Shandong/LY/08(H9N2)) neuraminidase using 4-MU-NANA as substrate incubated for 5 mins prior to substrate addition measured after 30 to 60 mins by Lineweaver-Burk plot analysis; design: species or system Influenza A virus (A/chicken/Shandong/LY/2008(H9N2))
ENDPOINT: pKi
For clarity, pKi is expressed as the negative log10 of concentration in mol/L.

Challenge: What pKi value was documented for this compound, CCC(CC)C(=O)Nc1cc(NC(C)=O)c(NC(=O)/C=C/c2ccc(O)c(O)c2)cc1OCC(=O)O ?
Response given: 5.57

###

target: Neuraminidase (Influenza A virus, UniProt B4URF0); assay: Inhibition of influenza A virus A/duck/China/QJ/01(H5N1) neuraminidase using 4-MU-NANA as substrate incubated for 5 mins prior to substrate addition measured after 30 to 60 mins by fluorescence assay
ENDPOINT: IC50 (µM)
Enter your answer as a number in µM; do not include the unit.

Worked set:
CCC(CC)C(=O)Nc1cc(NC(=O)[C@H](Cc2ccccc2)NC(=O)/C=C/c2ccc(O)c(O)c2)ccc1OCC(=O)O: 16.2
CCC(CC)C(=O)Nc1cc(NC(=O)C(C)C)c(NC(=O)/C=C/c2ccc(O)c(O)c2)cc1OCC(=O)O: 14.2
CCC(CC)C(=O)Nc1cc(NC(=O)C(C)C)c(NC(=O)CCc2ccc(O)c(O)c2)cc1OCC(=O)O: 38.2
CCC(CC)C(=O)Nc1cc(NC(=O)NCc2ccccc2)ccc1OCC(=O)O: 55.6
CCC(CC)C(=O)Nc1cc(NC(=O)[C@@H](NC(=O)/C=C/c2ccc(O)c(O)c2)C(C)C)ccc1OCC(=O)O: 16.6

Challenge: Fill in the blank: the reported IC50 of CCC(CC)CN(C(=O)/C=C/c1ccc(O)c(O)c1)c1ccc(OCC(=O)O)c(NC(=O)C(CC)CC)c1 is ____.
Response given: 11.3

Challenge: Same again, this time with CCC(CC)C(=O)Nc1cc(NC(C)=O)c(NC(=O)/C=C/c2ccc(O)c(O)c2)cc1OCC(=O)O
Response given: 10.7
